# Experimental Target: Porcine Ventricle myofibrils (left ventricle of Yucatan minipigs) (Sus scrofa)
# Construct: Myofibrils from porcine cardiac muscle was isolated from the left ventricle of Yucatan minipigs; tissue Exemplar Genetics; host or cells: left ventricle of Yucatan minipigs
# Sequence (P79293 whole entry): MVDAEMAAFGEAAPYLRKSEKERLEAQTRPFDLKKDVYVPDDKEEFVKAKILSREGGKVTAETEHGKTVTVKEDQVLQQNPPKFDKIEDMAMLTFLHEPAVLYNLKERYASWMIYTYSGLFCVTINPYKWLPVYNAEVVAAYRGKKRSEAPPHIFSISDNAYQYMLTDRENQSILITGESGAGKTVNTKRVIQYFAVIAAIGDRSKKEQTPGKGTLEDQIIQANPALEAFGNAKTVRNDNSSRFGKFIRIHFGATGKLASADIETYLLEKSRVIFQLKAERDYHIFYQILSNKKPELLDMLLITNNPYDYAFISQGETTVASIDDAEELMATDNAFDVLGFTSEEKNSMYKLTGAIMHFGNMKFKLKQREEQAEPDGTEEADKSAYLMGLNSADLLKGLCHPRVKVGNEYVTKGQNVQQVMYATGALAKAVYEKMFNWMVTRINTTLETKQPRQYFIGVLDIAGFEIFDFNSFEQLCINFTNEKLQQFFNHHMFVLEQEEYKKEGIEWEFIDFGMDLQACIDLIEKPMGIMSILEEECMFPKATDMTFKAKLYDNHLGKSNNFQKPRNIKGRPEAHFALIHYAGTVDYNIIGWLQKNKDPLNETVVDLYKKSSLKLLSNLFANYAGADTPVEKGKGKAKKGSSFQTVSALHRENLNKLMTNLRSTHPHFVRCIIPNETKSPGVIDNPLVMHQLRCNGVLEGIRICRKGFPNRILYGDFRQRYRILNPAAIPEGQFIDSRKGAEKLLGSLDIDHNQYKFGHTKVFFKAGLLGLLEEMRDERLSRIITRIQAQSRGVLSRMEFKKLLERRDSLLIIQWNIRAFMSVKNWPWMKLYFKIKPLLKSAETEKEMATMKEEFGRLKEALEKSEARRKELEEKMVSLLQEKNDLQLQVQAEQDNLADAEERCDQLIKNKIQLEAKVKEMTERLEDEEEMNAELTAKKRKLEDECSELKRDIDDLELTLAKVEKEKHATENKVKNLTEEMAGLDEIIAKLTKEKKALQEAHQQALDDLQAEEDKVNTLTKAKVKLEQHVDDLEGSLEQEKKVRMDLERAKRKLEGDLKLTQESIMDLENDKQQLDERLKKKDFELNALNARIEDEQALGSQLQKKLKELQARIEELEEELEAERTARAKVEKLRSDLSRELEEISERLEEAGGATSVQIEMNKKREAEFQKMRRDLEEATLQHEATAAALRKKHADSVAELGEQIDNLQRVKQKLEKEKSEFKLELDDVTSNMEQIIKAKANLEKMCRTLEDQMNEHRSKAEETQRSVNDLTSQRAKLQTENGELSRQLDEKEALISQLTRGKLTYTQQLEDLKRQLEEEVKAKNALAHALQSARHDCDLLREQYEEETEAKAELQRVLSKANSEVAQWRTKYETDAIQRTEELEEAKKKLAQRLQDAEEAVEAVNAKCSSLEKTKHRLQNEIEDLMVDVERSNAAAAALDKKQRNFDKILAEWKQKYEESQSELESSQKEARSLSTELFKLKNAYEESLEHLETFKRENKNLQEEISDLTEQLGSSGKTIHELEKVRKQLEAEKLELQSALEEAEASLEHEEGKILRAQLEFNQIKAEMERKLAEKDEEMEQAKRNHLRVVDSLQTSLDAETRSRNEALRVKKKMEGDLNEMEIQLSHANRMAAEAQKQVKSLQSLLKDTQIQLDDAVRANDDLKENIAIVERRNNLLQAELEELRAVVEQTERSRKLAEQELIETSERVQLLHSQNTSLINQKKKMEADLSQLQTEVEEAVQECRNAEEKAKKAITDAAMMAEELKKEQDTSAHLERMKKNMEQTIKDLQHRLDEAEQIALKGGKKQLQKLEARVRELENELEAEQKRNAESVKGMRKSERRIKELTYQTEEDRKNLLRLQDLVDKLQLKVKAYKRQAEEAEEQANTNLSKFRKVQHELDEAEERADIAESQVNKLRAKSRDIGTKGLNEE
# Assay Info: Myofibril ATPase assay (PK/LDH NADH-coupled), ventricle myofibrils
# Format: biochemical
# Condition Summary: Table 8
Test Readout: Porcine Ventricle IC25 (nM)

| Compound | Value Reported |
| --- | --- |
| Cc1nc([C@H](C)NC(=O)CN2Cc3c(ccc(F)c3F)NC2=O)ncc1C#N [Compound B353] | 2240 |

(P) C[C@H](NC(=O)[C@@H](C)N1Cc2c(Br)cccc2NC1=O)c1ccc(F)cc1F [Compound B228]
(Q) Cc1cc(F)cnc1[C@H](C)NC(=O)CN1Cc2c(ccc(F)c2F)NC1=O [Compound B39]
Please indicate which entry, P or Q , has the lower recorded Porcine Ventricle IC25 value. Reply with the label of the item you choose.
Q

(A) Cc1cnncc1[C@@H](C)NC(=O)CN1Cc2c(ccc(F)c2F)NC1=O [Compound B46]
(B) C[C@@H](NC(=O)CN1Cc2c(ccc(F)c2F)NC1=O)c1ncc(C#N)cc1F [Compound B141]
// which entry has the larger Porcine Ventricle IC25 value, A or B ? Give the label under which the chosen entry appears.
B

(I) Cc1nc([C@@H](C)NC(=O)CN2Cc3c(ccc(F)c3F)NC2=O)cnc1C#N [Compound B338]
(II) C[C@H](NC(=O)CN1Cc2c(ccc(F)c2F)NC1=O)c1ccc2ccccc2n1 [Compound B289]
(III) CC(=O)N1CC2(C1)c1cc(F)ccc1NC(=O)N2CC(=O)N[C@@H](C)c1ncc(C#N)cc1F [Compound B256]
(IV) C[C@@H](NC(=O)CN1Cc2c(ccc(F)c2F)NC1=O)c1cnc(C#N)cn1 [Compound B91]
Please rank these compounds by Porcine Ventricle IC25 in descending order. # answer = labels listed in requested order
II, III, I, IV

(a) C[C@@H](NC(=O)CN1Cc2cc(F)cc(F)c2NC1=O)c1ccc(C#N)cc1F [Compound B28]
(b) C[C@H](NC(=O)CN1Cc2c(ccc(F)c2F)NC1=O)c1ncc(F)cc1Cl [Compound B37]
(c) CC(NC(=O)CN1Cc2cc(F)ccc2NC1=O)c1ccc(C#N)cc1F (centres unmarked) [Compound B78]
(d) N#Cc1cc(F)c2c(c1)OC[C@H]2NC(=O)CN1Cc2c(ccc(F)c2C#N)NC1=O [Compound B117]
Hey, quick one: sort these by Porcine Ventricle IC25, low to high? I would appreciate it if you listed the labels in the requested order.
c, b, d, a

(a) O=C(CN1Cc2c(ccc(F)c2F)NC1=O)N[C@@H]1COc2cc(F)cnc21 [Compound B6]
(b) Cc1cccnc1[C@@H](C)NC(=O)CN1Cc2c(ccc(F)c2F)NC1=O [Compound B182]
(c) N#Cc1c(F)ccc2c1CN(CC(=O)N[C@@H](CO)c1ccc(F)cc1F)C(=O)N2 [Compound B152]
Ascending by Porcine Ventricle IC25, please. # output: labels, in the requested order
a, c, b
